Assayed Target: T1, hu PD1-ECD (human, UniProt Q15116 25-170)
T1 construct: SPR analyte; also called human PD1-ECD
T1 sequence (Q15116 25-170 limits assumed): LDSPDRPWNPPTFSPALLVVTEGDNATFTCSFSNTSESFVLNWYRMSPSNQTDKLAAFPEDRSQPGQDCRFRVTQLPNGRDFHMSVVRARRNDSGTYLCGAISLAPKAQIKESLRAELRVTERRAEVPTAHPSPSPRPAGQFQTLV
Test Method Notes: SPR (Biacore T200), antibody captured by anti-human IgG, hu PD1-ECD as analyte, 25 °C, 1:1 Langmuir fit
Measurement Name: koff (s⁻¹)
Expressed in s⁻¹, but write only the number.

Prompt: Field request: koff | item: PD1-0103-0313 (antibody, human IgG1, V domains shown, Humanized; also called PD1-103-0313; PD-0103-0313) VH: EVQLLESGGGLVQPGGSLRLSCAASGFSFSSYTMSWVRQAPGKGLEWVATISGGGRDIYYPDSVKGRFTISRDNSKNTLYLQMNSLRAEDTAVYYCVLLTGRVYFALDSWGQGTLVTVSS VL: DVVMTQSPLSLPVTLGQPASISCRASESVDTSDNSFIHWYQQRPGQSPRLLIYRSSTLESGVPDRFSGSGSGTDFTLKISRVEAEDVGVYYCQQNYDVPWTFGQGTKVEIK
Completion: 0.000367

Prompt: Field request: koff | item: PD1-0103-0314 (antibody, human IgG1, V domains shown, Humanized; also called PD1-103-0314; PD-0103-0314) VH: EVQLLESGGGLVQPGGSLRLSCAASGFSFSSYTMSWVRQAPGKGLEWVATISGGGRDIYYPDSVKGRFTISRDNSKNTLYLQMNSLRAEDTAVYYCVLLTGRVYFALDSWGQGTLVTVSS VL: EIVLTQSPATLSLSPGERATLSCRASESVDTSDNSFIHWYQQKPGQSPRLLIYRSSTLESGIPARFSGSGSGTDFTLTISSLEPEDFAVYYCQQNYDVPWTFGQGTKVEIKR
Completion: 0.000279

Prompt: Field request: koff | item: chimeric PD1-0103 (antibody, human IgG1, V domains shown, also called chiPD1-0103) VH: EVILVESGGGLVKPGGSLKLSCAASGFSFSSYTMSWVRQTPEKRLDWVATISGGGRDIYYPDSVKGRFTISRDNAKNTLYLEMSSLMSEDTALYYCVLLTGRVYFALDSWGQGTSVTVSS VL: KIVLTQSPASLPVSLGQRATISCRASESVDTSDNSFIHWYQQRPGQSPKLLIYRSSTLESGVPARFSGSGSRTDFTLTIDPVEADDVATYYCQQNYDVPWTFGGGTKLEIK
Completion: 0.000307
